- study system: dSARM1^ARM (Drosophila SARM1 ARM domain) (Drosophila melanogaster, UniProt Q6IDD9, R437A)
- Sequence (Q6IDD9 307-678 R437A): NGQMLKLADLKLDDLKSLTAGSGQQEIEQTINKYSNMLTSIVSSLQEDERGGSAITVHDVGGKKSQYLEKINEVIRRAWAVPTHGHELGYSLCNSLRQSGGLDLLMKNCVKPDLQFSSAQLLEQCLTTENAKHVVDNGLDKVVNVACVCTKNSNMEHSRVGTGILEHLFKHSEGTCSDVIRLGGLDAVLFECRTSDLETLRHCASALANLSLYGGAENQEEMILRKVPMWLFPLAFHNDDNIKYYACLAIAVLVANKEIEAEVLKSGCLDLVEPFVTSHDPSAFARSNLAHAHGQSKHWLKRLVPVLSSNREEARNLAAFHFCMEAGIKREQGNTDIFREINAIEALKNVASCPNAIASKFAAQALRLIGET
- test name: ITC
quantity name: pKd
Units for pKd: none; it is -log10 of a concentration expressed in mol/L.

Ask: Name the reported pKd value associated with the compound NC(=O)c1ccc[n+]([C@@H]2O[C@H](COP(=O)([O-])O)[C@@H](O)[C@H]2O)c1 [NMN]
Reply: 4.90
